Reference for the values: PubChem BioAssay AID540295

Reported inhibition values follow for various molecules
TARGET: Melanocortin receptor 4 (Homo sapiens)
EXPERIMENTAL_PROTOCOL: MC4R antagonists of cAMP signaling, primary screen, cell-based, TR-FRET, antagonist arm of biased-ligand search (AID 540295);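 also: 0% = Melanotan II alone and 100% = Melanotan II plus saturating MCL0020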
CONDITION_PARAMETERS: MC4R-expressing cells, MTII-stimulated cAMP, LANCE TR-FRET; at 6.5 µM; active compounds read high
Screen size: about 360,000 compounds; about 1,700 (0.47%) were called active. This is one part of a sample in which actives are shown more often than they occur.
MEASUREMENT_LABEL: inhibition (%)

MOLECULE: O=C(COC(=O)/C=C/c1cn(-c2ccccc2)nc1-c1cccnc1)Nc1ccc(Cl)cc1Cl
TARGET: Melanocortin receptor 4 (Homo sapiens)
MEASUREMENT_LABEL: inhibition
MEASUREMENT_UNIT: %
MEASURED_VALUE: 11.1

MOLECULE: O=C(OCC(=O)N1CCCCCC1)c1ccc(Cl)nc1
TARGET: Melanocortin receptor 4 (Homo sapiens)
MEASUREMENT_LABEL: inhibition
MEASUREMENT_UNIT: %
MEASURED_VALUE: 2.21

MOLECULE: O=C(CSc1nc2ccc(Nc3nc(N4CCOCC4)nc(N4CCOCC4)n3)cc2s1)NCc1ccco1
TARGET: Melanocortin receptor 4 (Homo sapiens)
MEASUREMENT_LABEL: inhibition
MEASUREMENT_UNIT: %
MEASURED_VALUE: 29.5

MOLECULE: Cc1ccc(S(=O)(=O)NC(C(=O)N2CCOCCOCCOCCOCC2)c2ccccc2)cc1 (stereo not drawn)
TARGET: Melanocortin receptor 4 (Homo sapiens)
MEASUREMENT_LABEL: inhibition
MEASUREMENT_UNIT: %
MEASURED_VALUE: -0.07

MOLECULE: O=C(CSc1nc(Nc2ccccc2)nc(N2CCOCC2)n1)Nc1cc(Cl)ccc1O
TARGET: Melanocortin receptor 4 (Homo sapiens)
MEASUREMENT_LABEL: inhibition
MEASUREMENT_UNIT: %
MEASURED_VALUE: -4.1

MOLECULE: COC(=O)c1sc(-c2ccc(C(C)(C)C)cc2)cc1NC(=O)/C=C/C(=O)O
TARGET: Melanocortin receptor 4 (Homo sapiens)
MEASUREMENT_LABEL: inhibition
MEASUREMENT_UNIT: %
MEASURED_VALUE: 37.3

MOLECULE: CCOc1ncccc1C(=O)NCCc1ccc(OC)cc1
TARGET: Melanocortin receptor 4 (Homo sapiens)
MEASUREMENT_LABEL: inhibition
MEASUREMENT_UNIT: %
MEASURED_VALUE: -0.79

MOLECULE: Cc1c(CNCCc2ccccc2)c(C(=O)O)c(C)n1-c1ccccc1
TARGET: Melanocortin receptor 4 (Homo sapiens)
MEASUREMENT_LABEL: inhibition
MEASUREMENT_UNIT: %
MEASURED_VALUE: 11.5

MOLECULE: CC(CCc1ccccc1)NC(=O)c1cnc(Cl)c(Cl)c1 (stereo not drawn)
TARGET: Melanocortin receptor 4 (Homo sapiens)
MEASUREMENT_LABEL: inhibition
MEASUREMENT_UNIT: %
MEASURED_VALUE: 9.38

MOLECULE: COc1ccc(CCNC(=O)COC(=O)c2cnc(Cl)c(Cl)c2)cc1
TARGET: Melanocortin receptor 4 (Homo sapiens)
MEASUREMENT_LABEL: inhibition
MEASUREMENT_UNIT: %
MEASURED_VALUE: 39.7

MOLECULE: COc1ccc(CCNC(=O)c2cnc(Cl)c(Cl)c2)cc1
TARGET: Melanocortin receptor 4 (Homo sapiens)
MEASUREMENT_LABEL: inhibition
MEASUREMENT_UNIT: %
MEASURED_VALUE: 29.6

MOLECULE: COc1ccc(-c2ccc3c(c2)C2CC3CCN2CCC#N)cc1 (stereo not drawn)
TARGET: Melanocortin receptor 4 (Homo sapiens)
MEASUREMENT_LABEL: inhibition
MEASUREMENT_UNIT: %
MEASURED_VALUE: 8.84

MOLECULE: O=S(=O)(c1ccc(SCc2ccc(Br)cc2)nc1)N1CCOCC1
TARGET: Melanocortin receptor 4 (Homo sapiens)
MEASUREMENT_LABEL: inhibition
MEASUREMENT_UNIT: %
MEASURED_VALUE: 5.21

MOLECULE: Cc1c(CCC(=O)O)c(=O)oc2c(C)c(OCc3ccccc3Cl)ccc12
TARGET: Melanocortin receptor 4 (Homo sapiens)
MEASUREMENT_LABEL: inhibition
MEASUREMENT_UNIT: %
MEASURED_VALUE: 17.1

MOLECULE: COc1ccc(CCNC(=O)COC(=O)c2ncc(Cl)c(Cl)c2Cl)cc1OC
TARGET: Melanocortin receptor 4 (Homo sapiens)
MEASUREMENT_LABEL: inhibition
MEASUREMENT_UNIT: %
MEASURED_VALUE: 14.8

MOLECULE: O=C(O)CN1C(=O)CC(Cc2ccccc2)C1=O (stereo not drawn)
TARGET: Melanocortin receptor 4 (Homo sapiens)
MEASUREMENT_LABEL: inhibition
MEASUREMENT_UNIT: %
MEASURED_VALUE: -3.51

MOLECULE: Cc1nnc(N/N=C/C2CC=CCC2)[nH]c1=O (stereo not drawn)
TARGET: Melanocortin receptor 4 (Homo sapiens)
MEASUREMENT_LABEL: inhibition
MEASUREMENT_UNIT: %
MEASURED_VALUE: 33.9

MOLECULE: Cc1c(CCC(=O)O)c(=O)oc2cc(OCc3ccc(Br)cc3)ccc12
TARGET: Melanocortin receptor 4 (Homo sapiens)
MEASUREMENT_LABEL: inhibition
MEASUREMENT_UNIT: %
MEASURED_VALUE: 29.8

MOLECULE: Cc1nnc(N/N=C/c2ccccn2)[nH]c1=O
TARGET: Melanocortin receptor 4 (Homo sapiens)
MEASUREMENT_LABEL: inhibition
MEASUREMENT_UNIT: %
MEASURED_VALUE: -1.07

MOLECULE: O=S(=O)(Cc1noc(-c2ccc(OC(F)(F)F)cc2)n1)c1ccc(F)cc1
TARGET: Melanocortin receptor 4 (Homo sapiens)
MEASUREMENT_LABEL: inhibition
MEASUREMENT_UNIT: %
MEASURED_VALUE: 4.42

MOLECULE: O=C(CSc1c2c(nc3ccc(Cl)cc13)CCCC2)NCc1ccco1
TARGET: Melanocortin receptor 4 (Homo sapiens)
MEASUREMENT_LABEL: inhibition
MEASUREMENT_UNIT: %
MEASURED_VALUE: 11.1

MOLECULE: O=C(OCC(=O)N1CCCCCC1)c1cnc(Cl)c(Cl)c1
TARGET: Melanocortin receptor 4 (Homo sapiens)
MEASUREMENT_LABEL: inhibition
MEASUREMENT_UNIT: %
MEASURED_VALUE: 30.5

MOLECULE: O=C(N/N=C\C1CC=CCC1)c1ccc(Br)o1 (stereo not drawn)
TARGET: Melanocortin receptor 4 (Homo sapiens)
MEASUREMENT_LABEL: inhibition
MEASUREMENT_UNIT: %
MEASURED_VALUE: 6.38
